# assayed system: T1, IFN-α4a (human, UniProt P05014 24-189)
# T1 construct: also called IFN-αM1
# test protocol: ProteOn, one antigen concentration
Recorded pKd by entry
// field semantics: pKd = negative decimal log of concentration (mol/L)

binder	pKd
IFWM3360 (antibody, V domains shown, VH IFWH624, VL IFWL1048; converted mAb; also called IFWB3095) VH: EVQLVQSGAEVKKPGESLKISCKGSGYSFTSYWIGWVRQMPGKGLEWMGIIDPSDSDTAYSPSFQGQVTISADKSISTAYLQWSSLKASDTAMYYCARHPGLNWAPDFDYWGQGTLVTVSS VL: DIQMTQSPSSLSASVGDRVTITCRASQSIDGALNWYQQKPGKAPKLLIYFASSLQSGVPSRFSGSGSGTDFTLTISSLQPEDFATYYCQQAYDFPLTFGQGTKVEIK	9.63
IFWM3342 (antibody, V domains shown, VH IFWH624, VL IFWL992; converted mAb; also called IFWB3077) VH: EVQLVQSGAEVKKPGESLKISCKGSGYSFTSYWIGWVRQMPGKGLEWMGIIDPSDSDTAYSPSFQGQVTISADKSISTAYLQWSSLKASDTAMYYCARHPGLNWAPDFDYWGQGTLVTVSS VL: DIQMTQSPSSLSASVGDRVTITCRASQSIGSFLNWYQQKPGKAPKLLIYFASSLQSGVPSRFSGSGSGTDFTLTISSLQPEDFATYYCQQSYSIPITFGQGTKVEIK	9.23

Please find the next binder below.
Record IFWM3343 (antibody, V domains shown, VH IFWH624, VL IFWL997; converted mAb; also called IFWB3078) VH: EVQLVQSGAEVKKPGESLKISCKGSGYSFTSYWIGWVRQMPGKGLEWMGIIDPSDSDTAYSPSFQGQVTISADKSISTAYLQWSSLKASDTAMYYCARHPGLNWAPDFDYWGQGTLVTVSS VL: DIQMTQSPSSLSASVGDRVTITCRASQSIGSALNWYQQKPGKAPKLLIYFASSLQSGVPSRFSGSGSGTDFTLTISSLQPEDFATYYCQQSYDFPLTFGQGTKVEIK , field pKd: 9.63
